Tested on: P388 cancer cell
Assay: Anti-tumor test, P388-inoculated mice (survival effect)
Assay type: in vivo
Details: Mus musculus, P388, ip; 50 mg/Kg/day, intraperitoneal, CDF1 mice, of six mice; read-out: Cure (converted)
Criterion: responders at 50 mg/kg strictly less than 50%. Met: label 1. Not met: label 0.

// known answers, use as guide
Molecule	Cat
CSCC[C@H](NC(=O)N(CCCl)N=O)C(=O)Nc1nncs1	label 0
CC(C)[C@@H](NC(=O)N(CCCl)N=O)C(=O)Nc1nncs1	label 1
CC(C)CC(NC(=O)N(CCCl)N=O)C(=O)Nc1nncs1 (centres unmarked)	label 0
CC(C)[C@H](NC(=O)N(CCCl)N=O)C(=O)O	label 1
O=NN(CCCl)C(=O)N[C@@H](Cc1ccccc1)C(=O)Nc1nncs1	label 0

Next molecule, please.
Strictly below 50% in responders at 50 mg/kg? O=NN(CCCl)C(=O)N[C@@H](C(=O)Nc1nncs1)c1ccccc1
label 0

====

Measured LD50 of individual entries
Assay: Acute toxicity (median lethal dose, intraperitoneal)
Conditions: mouse, in vivo, ip; intraperitoneal injection, ddy mice, Litchfield-Wilcoxon method
Protocol: The median lethal dose (LD50) of each of the test compounds was determined by the Litchfield-Wilcoxon method after the intraperitoneal injection of the compound into ddy mice.
Give just the number in mg/kg; leave the unit off.

Molecule	Numeric result
CC(C)C[C@@H](NC(=O)N(CCCl)N=O)C(=O)Nc1nncs1	61
C[C@@H](O)[C@H](NC(=O)N(CCCl)N=O)C(=O)Nc1nncs1 (relative stereo)	65
O=NN(CCCl)C(=O)NC1(C(=O)Nc2nncs2)CCCC1	53

# input molecule: O=NN(CCCl)C(=O)N[C@@H](Cc1ccccc1)C(=O)Nc1nncs1 ; wanted: its LD50
74

# input molecule: CC(C)C[C@H](NC(=O)N(CCCl)N=O)C(=O)Nc1nncs1 ; wanted: its LD50
85
